Each entry below lists one item and its recorded IC50 of inhibition of MCF-7 cell proliferation (CCK8, OD450) value.
target: IGF-1R on MCF-7 cells (UniProt P08069 31-1367, limits assumed); assay: cell-based or functional assay
Sequence (P08069 31-1367 limits assumed): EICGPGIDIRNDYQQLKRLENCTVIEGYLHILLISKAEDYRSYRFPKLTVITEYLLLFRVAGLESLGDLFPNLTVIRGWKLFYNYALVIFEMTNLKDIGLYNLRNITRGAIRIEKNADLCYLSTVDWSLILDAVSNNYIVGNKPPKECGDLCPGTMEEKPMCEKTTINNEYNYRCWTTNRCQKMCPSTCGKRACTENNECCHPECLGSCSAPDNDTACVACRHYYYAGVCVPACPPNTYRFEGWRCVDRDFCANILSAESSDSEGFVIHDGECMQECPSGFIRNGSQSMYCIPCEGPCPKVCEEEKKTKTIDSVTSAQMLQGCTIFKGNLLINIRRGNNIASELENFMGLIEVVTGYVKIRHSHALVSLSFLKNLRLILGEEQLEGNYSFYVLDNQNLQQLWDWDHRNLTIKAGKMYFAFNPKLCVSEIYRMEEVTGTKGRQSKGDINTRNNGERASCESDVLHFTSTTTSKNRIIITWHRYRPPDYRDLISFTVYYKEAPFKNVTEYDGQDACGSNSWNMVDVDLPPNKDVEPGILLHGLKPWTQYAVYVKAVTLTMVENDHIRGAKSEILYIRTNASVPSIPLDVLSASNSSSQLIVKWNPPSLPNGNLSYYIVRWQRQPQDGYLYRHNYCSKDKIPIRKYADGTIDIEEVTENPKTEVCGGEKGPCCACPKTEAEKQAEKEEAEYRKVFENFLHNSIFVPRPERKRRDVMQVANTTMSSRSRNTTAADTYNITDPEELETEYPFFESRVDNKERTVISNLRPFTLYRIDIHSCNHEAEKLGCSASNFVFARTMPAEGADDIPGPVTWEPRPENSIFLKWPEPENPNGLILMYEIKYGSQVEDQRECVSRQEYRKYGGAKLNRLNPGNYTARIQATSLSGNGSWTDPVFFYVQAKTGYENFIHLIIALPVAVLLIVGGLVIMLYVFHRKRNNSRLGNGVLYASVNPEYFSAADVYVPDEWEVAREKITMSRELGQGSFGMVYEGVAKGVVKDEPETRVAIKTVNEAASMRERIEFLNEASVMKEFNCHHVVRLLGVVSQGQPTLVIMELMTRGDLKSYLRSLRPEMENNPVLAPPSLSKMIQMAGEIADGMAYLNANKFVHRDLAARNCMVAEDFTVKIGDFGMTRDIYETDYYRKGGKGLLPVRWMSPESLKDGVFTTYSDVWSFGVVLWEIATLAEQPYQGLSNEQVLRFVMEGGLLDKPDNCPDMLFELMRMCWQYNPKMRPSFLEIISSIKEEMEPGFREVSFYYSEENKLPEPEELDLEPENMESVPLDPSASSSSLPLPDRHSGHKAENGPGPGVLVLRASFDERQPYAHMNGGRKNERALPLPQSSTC
Return type: number; implicit unit µg/mL.

[
  {
    "binder": "PHP1003-2 (antibody, human IgG1, kappa, L234A L235A, V domains shown, Variable and constant regions are directly spliced) VH: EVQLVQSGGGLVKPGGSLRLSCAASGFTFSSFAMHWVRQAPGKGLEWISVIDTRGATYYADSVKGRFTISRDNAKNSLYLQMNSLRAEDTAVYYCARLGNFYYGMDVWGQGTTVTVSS VL: EIVLTQSPGTLSVSPGERATLSCRASQSIGSSLHWYQQKPGQAPRLLIKYASQSLSGIPDRFSGSGSGTDFTLTISRLEPEDFAVYYCHQSSRLPHTFGQGTKVEIKR",
    "obsValue": 3.93
  },
  {
    "binder": "PHP1003-4 (antibody, human IgG1, kappa, L234A L235A, V domains shown, Variable and constant regions are directly spliced) VH: EVQLVQSGAEVKKPGSSVKVSCKASGGTFSSYAISWVRQAPGQGLEWMGGIIPIFGTANYAQKFQGRVTITADKSTSTAYMELSSLRSEDTAVYYCARAPLRFLEWSTQDHYYYYYMDVWGKGTTVTVSS VL: SSELTQDPAVSVALGQTVRITCQGDSLRSYYATWYQQKPGQAPILVIYGENKRPSGIPDRFSGSSSGNTASLTITGAQAEDEADYYCKSRDGSGQHLVFGGGTKLTVLR",
    "obsValue": 4.05
  },
  {
    "binder": "PHP1003-7 (antibody, human IgG1, kappa, L234A L235A, V domains shown, Variable and constant regions are directly spliced) VH: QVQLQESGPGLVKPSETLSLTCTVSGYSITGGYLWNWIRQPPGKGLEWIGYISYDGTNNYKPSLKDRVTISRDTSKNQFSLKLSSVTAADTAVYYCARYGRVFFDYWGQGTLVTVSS VL: DIVMTQSPLSLPVTPGEPASISCRSSQSIVHSNGNTYLQWYLQKPGQSPQLLIYKVSNRLYGVPDRFSGSGSGTDFTLKISRVEAEDVGVYYCFQGSHVPWTFGQGTKVEIKR",
    "obsValue": 2.14
  },
  {
    "binder": "PHP1003-5 (antibody, human IgG1, kappa, L234A L235A, V domains shown, Variable and constant regions are directly spliced) VH: EVQLLESGGGLVQPGGSLRLSCTASGFTFSSYAMNWVRQAPGKGLEWVSAISGSGGTTFYADSVKGRFTISRDNSRTTLYLQMNSLRAEDTAVYYCAKDLGWSDSYYYYYGMDVWGQGTTVTVSS VL: DIQMTQFPSSLSASVGDRVTITCRASQGIRNDLGWYQQKPGKAPKRLIYAASRLHRGVPSRFSGSGSGTEFTLTISSLQPEDFATYYCLQHNSYPCSFGQGTKLEIKR",
    "obsValue": 0.96
  }
]

Now examine the next entry.
Quick one: IC50 of inhibition of MCF-7 cell proliferation (CCK8, OD450) for PHP1003-6 (antibody, human IgG1, kappa, L234A L235A, V domains shown, Variable and constant regions are directly spliced) VH: QVQLQESGGGVVQPGRSLRLSCSASGFTFSDYYMYWVRQAPGKGLEWVAYITNYGGSTYYPDTVKGRFTISRDNAKNTLFLQMDSLRPEDTGVYFCARQSNYDYDGWFAYWGQGTPVTVSS VL: DIQLTQSPSSLSASVGDRVTITCKASQEVGTAVAWYQQKPGKAPKLLIYWASTRHTGVPSRFSGSGSGTDFTFTISSLQPEDIATYFCQQYSNYPLTFGQGTKVEIKR ?
3.81
